The values you see were collected from PubChem BioAssay.

Listed here: items and their measured z-score.
- measurement description: HepG2 liver cancer cell viability effects, profiling panel, resazurin fluorescence, 24 h, PK04 Diversity Set (AID 1172); note: test concentration not given here
- stated conditions: higher = more signal

compound | z-score
Cc1ccc(F)cc1S(=O)(=O)N[C@@H]1CCN(Cc2ccc3c(c2)OCO3)C1 | -0.622
C=CC[C@@]1(C(=O)N(C)C)N=C(c2ccc(OCCCO)cc2)O[C@@H]1c1ccccc1 | 0.879
COCCOC(=O)N1C(=O)[C@@]2(c3cc(C#CC4(O)CCCCCC4)ccc31)[C@H](C(=O)NC[C@H](O)c1ccccc1)[C@H]1C(=O)O[C@H](c3ccccc3)[C@H](c3ccccc3)N1[C@@H]2c1ccc(O)cc1 | 0.982
CC(C)CNC(=O)[C@@H]1c2ccccc2C(=O)N(C(C)C)[C@H]1c1ccc(CO)cc1 | 0.0161
C=CCOC(=O)[C@H]1[C@@H]2C(=O)O[C@@H](c3ccccc3)[C@@H](c3ccccc3)N2[C@@H](c2ccc(OCCOC(=O)[C@H]3C[C@H]4C(=O)NCC(=O)N4[C@H]3c3ccc(O)cc3)cc2)[C@]12C(=O)Nc1ccc(I)cc12 | 0.0134
O=C1N(Cc2ccccc2)c2ccccc2[C@H]2OC(c3ccc(OCCCO)cc3)=N[C@@]12Cc1ccccc1 | -1.46
CC=CC(O)C1C=CC2C(=O)N(C)C(=O)C2N1NC(=O)OC(C)(C)C (centres undefined) | -1
COC(=O)[C@@]1(Cc2ccccc2)[C@H]2c3cc(C(=O)N4CCCC4)n(Cc4ccc(C(F)(F)F)nc4)c3C[C@H]2CN1C(=O)c1ccccc1 | 0.0826
C=CCC(OC(C)=O)[C@@H]1[C@@H](N(Cc2ccc(-c3cccc(C(F)(F)F)c3)o2)C(=O)Cc2ccc(OC)cc2)c2cc(OCCCO)ccc2N1C(=O)c1ccc2ccccc2n1 (some centres undefined) | -0.777
O=C(NCCO)C1=C[C@H](Oc2ccccc2I)[C@@H](O)[C@H](NCc2ccc(F)cc2)C1 | -1.47
C=CCNC(=O)[C@@H]1[C@H]2C(=O)O[C@H](c3ccccc3)[C@H](c3ccccc3)N2[C@H](c2ccc(O)cc2)[C@@]12C(=O)Nc1ccc(C#CC3(O)CCCCCC3)cc12 | -0.285
COc1ccc([Si](C)(C)[C@H]2[C@H](CCn3cc([C@H](O)c4ccccc4)nn3)O[C@@]3(C(=O)N(c4ccccc4)c4ccccc43)[C@@H]2C)cc1 | 0.378
CCCCNC(=O)c1ccc(C#C[Si](C)(C)C)c(OC(C)=O)c1 | -0.0319
C=CCC(OC(C)=O)[C@@H]1[C@@H](N(Cc2ccc(-c3cccc(C(F)(F)F)c3)o2)C(=O)Cc2ccc(F)cc2)c2cc(OCCCO)ccc2N1C(=O)c1ccc2ccccc2n1 (some centres undefined) | 0.286
O=C1OCCC/C=C\[C@H]2OC34C=CCN(Cc5ccccc5)C(=O)[C@H]3N(CCCCCO)C(=O)[C@@H]4C12 (some centres undefined) | 0.804
C=CCC(OC(C)=O)[C@@H]1[C@@H](N(Cc2cc3ccccc3o2)C(=O)Cc2ccc(OC)cc2)c2cc(OCCCO)ccc2N1C(=O)Cc1ccc2ccccc2c1 (some centres undefined) | -1.22
COC(=O)Cn1c(C(=O)N(C)C)cc2c1C[C@H]1CN(C(=O)c3ccccc3)[C@@](Cc3ccc(OC)cc3)(C(=O)OC)[C@@H]21 | -0.708
CN(C)CCCCNC(=O)[C@H]1C[C@H]2C(=O)N[C@@H](Cc3ccccc3)C(=O)N2[C@H]1c1cccc(OCCO)c1 | 1.36
[N-]=[N+]=NCc1ccccc1[C@@H]1OC(c2ccc(OCCCO)cc2)=N[C@]1(Cc1ccccc1)C(=O)NCc1ccccc1 | 0.771
COC(=O)C1(CC(C)C)C=C2C(=C(C(C)C)C(=O)C2C)CN1 (centres undefined) | -0.947
[N-]=[N+]=Nc1ccccc1[C@@H]1OC(c2ccc(OCCCO)cc2)=N[C@]1(Cc1ccccc1)C(N)=O | 1.2
CCCCC(=C=CC[C@@H](O)c1cccc(OCCO)c1)CCO | 0.695
C=CCC(OC(C)=O)[C@@H]1[C@@H](N(Cc2ccc(-c3ccccc3)cc2)C(=O)c2cccc3ccccc23)c2cc(OCCCO)ccc2N1C(=O)c1ccc2ccccc2c1 (some centres undefined) | -0.784
CC(C)=CCN(C(=O)C#Cc1ccccc1)[C@H](CO)c1ccccc1 | -3.85
CCCC=C(CCC)[C@@H](NC(=O)c1ccccc1)c1ccc(C(=O)OC)cc1 | 0.295
COCCn1c(C(=O)N2CCCC2)cc2c1C[C@H]1CN(C(=O)c3ccccc3)[C@@](Cc3ccccc3)(C(=O)OC)[C@@H]21 | -0.171
CN(C)CCCC[C@@H]1NC(=O)[C@H]2C[C@@H](C(=O)NCc3ccc(F)cc3)[C@@H](c3ccc(O)cc3)N2C1=O | 0.222
COCCCN1C(=O)[C@@]2(Cc3ccccc31)c1ccccc1C(=O)N(Cc1ccccc1OC)[C@H]2c1ccc(CO)cc1 | -0.525
CCOC(=O)C[C@H]1[C@H](OC(=O)c2cc3ccccc3oc2=O)[C@@H](NC(=O)C2CCCCC2)c2cc(OCCCO)ccc2N1C(=O)Cc1ccc(OC)cc1 | -0.715
